Molecular target: MCH receptor (Homo sapiens, UniProt Q99705)
Construct: expressed in transfected cells; host or cells: CHO cells
Sequence (Q99705 whole entry): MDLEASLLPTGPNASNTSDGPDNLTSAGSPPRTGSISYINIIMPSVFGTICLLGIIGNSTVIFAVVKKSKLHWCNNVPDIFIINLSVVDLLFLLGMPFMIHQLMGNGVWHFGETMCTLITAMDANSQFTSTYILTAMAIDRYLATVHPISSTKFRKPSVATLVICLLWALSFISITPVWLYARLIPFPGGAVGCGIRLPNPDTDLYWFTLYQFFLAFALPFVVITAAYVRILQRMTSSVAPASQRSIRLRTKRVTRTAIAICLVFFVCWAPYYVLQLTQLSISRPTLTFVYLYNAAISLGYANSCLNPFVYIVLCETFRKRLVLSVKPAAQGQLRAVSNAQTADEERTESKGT
Test: MCH Receptor Binding Assay
Settings: Table 1; membranes from CHO cells expressing the MCH receptor, [125I]-MCH, SPA; read-out: MCH Ki (nm)
Criterion: Ki strictly under 0.04 µM. Met: 1.0. Not met: 0.0.

Molecule: N#Cc1cccc(-c2ccc(CN(CC(=O)Nc3cc(Cl)cc(Cl)c3)C(=O)NCCN3CCCC3)cc2)c1
Assigned class: 1.0

Molecule: N#Cc1cccc(-c2ccc(CCN(CC(=O)Nc3ccc(F)c(C(F)(F)F)c3)C(=O)CN3CCCC3)cc2)c1
Assigned class: 1.0

Determine if CC(C(=O)Nc1cc(Cl)cc(Cl)c1)N(Cc1ccc(-c2cccc(C#N)c2)cc1)C(=O)CCN1CC[C@H](O)C1 (some centres unmarked) shows Ki strictly lower than 0.04 µM.
0.0

Determine if N#Cc1cccc(-c2ccc(CN(CC(=O)Nc3cc(Cl)cc(Cl)c3)C(=O)CN3CC[C@@H](O)C3)cc2)c1 shows Ki strictly lower than 0.04 µM.
0.0

Determine if N#Cc1cccc(-c2ccc(CCN(CC(=O)Nc3ccc(F)c(Cl)c3)C(=O)CN3CC[C@@H](O)C3)cc2)c1 shows Ki strictly lower than 0.04 µM.
1.0

Determine if N#Cc1cccc(-c2ccc(CCN(CC(=O)Nc3ccc(Cl)c(C(F)(F)F)c3)C(=O)CN3CC[C@@H](O)C3)cc2)c1 shows Ki strictly lower than 0.04 µM.
1.0

Determine if N#Cc1cccc(-c2ccc(CCN(CC(=O)Nc3cc(F)cc(C(F)(F)F)c3)C(=O)CN3CCCC3)cc2)c1 shows Ki strictly lower than 0.04 µM.
1.0

Determine if N#Cc1cccc(-c2ccc(CN(CC(=O)Nc3cc(Cl)cc(Cl)c3)C(=O)CN3CC[C@H](O)C3)cc2)c1 shows Ki strictly lower than 0.04 µM.
1.0

Determine if CC(C(=O)Nc1cc(Cl)cc(Cl)c1)N(Cc1ccc(-c2cccc(C#N)c2)cc1)C(=O)CCN1CCCC1 (centres unmarked) shows Ki strictly lower than 0.04 µM.
0.0

Determine if CC(C(=O)Nc1cc(Cl)cc(Cl)c1)N(CCc1ccc(-c2cccc(C#N)c2)cc1)C(=O)CN1CC[C@H](O)C1 (some centres unmarked) shows Ki strictly lower than 0.04 µM.
1.0

Determine if N#Cc1cccc(-c2ccc(CCN(CC(=O)Nc3cc(F)cc(C(F)(F)F)c3)C(=O)CN3CC[C@@H](O)C3)cc2)c1 shows Ki strictly lower than 0.04 µM.
1.0

Determine if N#Cc1cccc(-c2ccc(CCN(CC(=O)Nc3cc(Cl)cc(Cl)c3)C(=O)CN3CCCC3)cc2)c1 shows Ki strictly lower than 0.04 µM.
1.0

Determine if N#Cc1cccc(-c2ccc(CN(CC(=O)Nc3ccc(F)c(C(F)(F)F)c3)C(=O)CN3CCCC3)cc2)c1 shows Ki strictly lower than 0.04 µM.
0.0
